The entries below come with measured IC50 values attached.
target: Human TRPC6 (Homo sapiens, UniProt Q9Y210); construct: expressed in transfected cells; test: Evaluation of TRPC6 channel inhibitory activity (1), FLIPR Calcium 5 Assay Kit, OAG stimulation (Compound Nos. 1-1293); type: cell-based; conditions: Human TRPC6 stably-expressing cells, OAG 30 μM, FLIPR Calcium 5 Assay Kit; read-out: Inhibitory activity (pIC50 class) (converted)

Consider the reported IC50 for these molecules:
Cn1nc(-c2ccccc2)cc1Oc1cc(C#N)ccc1-n1cc(N2CCNCCC2=O)cn1 [Compound 219] | 10 to 1000 nM
Cn1nc(C2CCOCC2)cc1Oc1cc(C#N)ccc1-c1ccc(CCN)cn1 [Compound 227] | < 10 nM
CCCCc1cc(Oc2cc(C#N)ccc2-c2ncc(C(O)CN)cn2)n(C)n1 (centres unmarked) [compound 337] | < 10 nM

IC50 for Cc1nc(OCC2CCCC2)cc(Oc2cc(C#N)ccc2-c2ccc(CCN)cc2)n1 [Compound 44] ?
> 1000 nM

# input molecule: Cn1nc(C2CC2)cc1Oc1cc(C#N)ccc1-c1ccc(C(N)C(N)=O)cn1 (centres unmarked) [compound 504] ; wanted: its IC50
> 1000 nM

Which IC50 value belongs to N#Cc1ccc(-c2ncc(CN)cn2)c(C(=O)c2cnn(-c3nccs3)c2)c1 [compound 1050] ?
10 to 1000 nM

GET /values?readout=IC50&item= CN(c1cc(C#N)ccc1-c1ncc(CCN)cn1)c1cc(-c2ccccc2)nn1C [Compound 6]
< 10 nM

Please report the recorded IC50 for Cc1nn(CC(C)C)cc1Cc1cc(C#N)ccc1-c1ncc(CCN)cn1 [compound 1199] .
< 10 nM

---

Molecular target: Human TRPC6 (Homo sapiens)
Construct: expressed in transfected cells
Sequence (Q9Y210 1-931): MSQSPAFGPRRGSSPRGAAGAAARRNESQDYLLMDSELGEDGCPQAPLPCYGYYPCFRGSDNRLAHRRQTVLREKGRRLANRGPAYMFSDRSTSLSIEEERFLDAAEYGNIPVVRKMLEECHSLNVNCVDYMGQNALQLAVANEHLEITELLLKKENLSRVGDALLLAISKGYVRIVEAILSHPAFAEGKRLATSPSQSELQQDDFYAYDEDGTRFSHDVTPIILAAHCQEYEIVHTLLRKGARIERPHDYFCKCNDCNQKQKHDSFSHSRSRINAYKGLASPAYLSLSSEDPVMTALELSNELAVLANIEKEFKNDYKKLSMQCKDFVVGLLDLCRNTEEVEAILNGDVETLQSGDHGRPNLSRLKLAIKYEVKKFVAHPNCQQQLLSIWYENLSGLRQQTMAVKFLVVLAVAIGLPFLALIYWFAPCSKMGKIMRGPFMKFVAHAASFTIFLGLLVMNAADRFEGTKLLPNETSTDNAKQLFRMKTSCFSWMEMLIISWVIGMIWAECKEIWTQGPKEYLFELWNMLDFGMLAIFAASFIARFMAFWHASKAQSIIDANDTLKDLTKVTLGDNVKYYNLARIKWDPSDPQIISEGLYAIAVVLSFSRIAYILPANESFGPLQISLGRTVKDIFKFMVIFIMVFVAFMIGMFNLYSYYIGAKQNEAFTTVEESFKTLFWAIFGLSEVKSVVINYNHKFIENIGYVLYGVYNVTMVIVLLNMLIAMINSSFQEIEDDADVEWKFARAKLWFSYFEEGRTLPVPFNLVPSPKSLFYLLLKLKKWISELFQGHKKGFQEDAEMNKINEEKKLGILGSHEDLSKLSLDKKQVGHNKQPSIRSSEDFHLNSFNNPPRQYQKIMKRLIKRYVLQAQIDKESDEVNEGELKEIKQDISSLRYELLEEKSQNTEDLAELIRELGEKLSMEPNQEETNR
Assay: Evaluation of TRPC6 channel inhibitory activity (2), HEK293 cells with stably introduced human TRPC6, OAG stimulation, FLIPR tetra (Compound Nos. 1293 to 1405)
Type: cell-based
Settings: HEK293 cells with stably introduced human TRPC6, OAG 50 μM/0.5% DMSO, read-out: Inhibitory activity (pIC50 class) (converted)
measurementType: IC50

Worked examples, 5 molecules total:
Cn1nc(-c2ccccn2)cc1Oc1cc(C#N)ccc1-c1ncc2c(n1)CNC2 | 10 to 1000 nM
Cn1nc(-c2ccccn2)cc1Oc1cc(Cl)ccc1-c1ccc([C@H](N)C(F)(F)F)cn1 | > 1000 nM
Cn1nc(-c2ccccn2)cc1Oc1cc(Cl)cc(F)c1-c1ccc(CN)cn1 | < 10 nM
Cn1nc(C2CC2)cc1Oc1cc(Cl)cnc1-c1ccc([C@@H](F)CN)cn1 | 10 to 1000 nM
Cn1nc(-c2ccccn2)cc1Oc1cc(C#N)ccc1-c1ccc(CN)nn1 | 10 to 1000 nM

I'd like to know its IC50. The molecule in question is `Cn1nc(-c2ccccn2)cc1Oc1cc(Cl)ccc1-c1ccc([C@H](F)CN)cn1`
< 10 nM

State the recorded IC50 for this entry: `Cc1nc(Oc2cc(Cl)ccc2-c2ncc(CCN)cn2)cc(N2CCOCC2)n1`
10 to 1000 nM

What IC50 value was documented for this molecule, `Cc1nc(Oc2cc(C#N)ccc2-c2ncc([C@H](F)CN)cn2)cc(N2CCOCC2)n1` ?
10 to 1000 nM
